Origin of the recorded values: paper PMC9352680

# Study target: T1, PUF4 RNA-binding domain (Saccharomyces cerevisiae, UniProt P25339 537-888)
# T1 sequence: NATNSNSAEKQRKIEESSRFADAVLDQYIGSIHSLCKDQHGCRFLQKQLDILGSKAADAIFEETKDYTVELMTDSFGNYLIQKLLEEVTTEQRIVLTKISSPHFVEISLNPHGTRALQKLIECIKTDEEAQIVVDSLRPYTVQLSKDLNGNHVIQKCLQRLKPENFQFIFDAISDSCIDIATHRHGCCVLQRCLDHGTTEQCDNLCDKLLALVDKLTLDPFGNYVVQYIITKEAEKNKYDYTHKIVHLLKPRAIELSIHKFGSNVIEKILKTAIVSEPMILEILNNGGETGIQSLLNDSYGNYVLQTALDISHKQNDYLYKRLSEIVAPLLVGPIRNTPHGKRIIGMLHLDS
# Test protocol: Mg; RNA-MaP; 20 mM Na-HEPES pH 7.4, 30 mM KOAc, 0.75 mM MgCl2, 0.1% Tween-20, 5% glycerol, 0.1 mg/mL BSA, 2 mM DTT; 25 C; 0.0125-409.6 nM protein
# Test settings: tags: N-His6-TEV cleaved; C-SNAP kept, Cy3B-labelled; label: tethered on chip by stalled RNA polymerase
Measurement kind: pKd
Convention used: pKd is expressed as -log10 of the molar concentration.

Sample records with pKd:
{"Binder": "Ic_S2_P5E.1_K5.1_C5.1_H5.1_A5.1_[T5C]_[T6A]_F5.1_[T9C]_[A10T]_T5.1 (ssRNA) RNA: UUUGAUUAAUAUGAUAUCGUUCUUUCUUGUACAAUCUUUCUUUCUCGAUAUCAUAUUAAUCUUU", "Value observed": 8.12}
{"Binder": "Ie_S4_P4E.1_K4.1_C4.1_H4.1_[+1TCC]_A4.1_F4.1_T4.1 (ssRNA) RNA: UUUGACAACUGAUCGUUCUUUCUUUCCGUAUAUUAUUCUUUCUCGAUCAGUUGUCUUU", "Value observed": 8.14}

Quickly give me recorded pKd for UCUCUUUGUAGCAUACUCUCUU (ssRNA) [Ic_S1_P5E.1_K5.1_C5.1_H5.1_A5.1_[T5G]_[T6C]_F5.1_[T9A]_[A10C]_T5.1]
8.06

Return the recorded pKd value; entry: UCUCUUCCCUCUUGUAUAUAUAUCUCUU (ssRNA) [Ie_S1_P3E.2_K3.1_C3.2_[+-2CCTC]_H3.1_A3.1_F3.1_T3.2]
8.15

Consider the binder Ie_S4_P4E.1_K4.1_C4.1_H4.1_[+2TT]_A4.1_F4.1_T4.1 (ssRNA) RNA: UUUGACAACUGAUCGUUCUUUCUUGUUUAUAUUAUUCUUUCUCGAUCAGUUGUCUUU and give its recorded pKd.
7.77
